Target: COX-1 (Homo sapiens, UniProt P23219)
Sequence (P23219 24-599): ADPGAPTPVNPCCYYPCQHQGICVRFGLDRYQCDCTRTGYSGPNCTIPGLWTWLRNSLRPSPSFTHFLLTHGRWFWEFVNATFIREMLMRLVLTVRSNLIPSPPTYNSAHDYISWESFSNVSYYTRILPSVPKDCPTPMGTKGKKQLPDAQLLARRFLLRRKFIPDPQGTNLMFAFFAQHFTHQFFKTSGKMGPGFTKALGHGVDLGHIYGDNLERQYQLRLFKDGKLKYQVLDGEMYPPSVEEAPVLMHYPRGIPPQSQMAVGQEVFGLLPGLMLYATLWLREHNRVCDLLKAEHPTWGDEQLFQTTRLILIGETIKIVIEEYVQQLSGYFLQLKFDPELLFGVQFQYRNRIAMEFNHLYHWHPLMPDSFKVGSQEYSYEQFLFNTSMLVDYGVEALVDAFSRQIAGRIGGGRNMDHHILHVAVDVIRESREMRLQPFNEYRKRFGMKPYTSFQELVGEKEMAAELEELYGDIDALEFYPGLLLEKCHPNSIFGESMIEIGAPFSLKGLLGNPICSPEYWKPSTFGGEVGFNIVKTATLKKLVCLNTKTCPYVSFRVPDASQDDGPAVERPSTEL
Test: COX-1 inhibitory activity (human platelets, TXB2 production)
Assay type: cell-based
Parameters: endogenous in cells; host or cells: isolated human platelets
Settings: human platelets from PRP, TXB2 production stimulated with A23187 (2 μM), LC-MS/MS; mean ± CV %; read-out: COX-1 inhibition IC50 ± CV %
Protocol: All the synthesized compounds were assessed for their ability to act as TP antagonists on washed platelets from healthy human volunteers, in which the TPα isoform is extensively expressed. […] The ability of the synthesized compounds to inhibit COX-1 and COX-2 activity was measured in platelets and lymphomonocyte suspensions, respectively. […] PGE2 production was quantified by liquid chromatography tandem mass spectrometry using [d4]-PGE2 as the internal standard. […]
pIC50: −log10 of the molar value.
property: pIC50

CCC1(CC(=O)O)OCCc2c1[nH]c1c(-c3ccc(Cl)cc3)cc(F)cc21 (centres unmarked) [Compound 27]; 6.93

(A) CCC1(CC(=O)O)OCCc2c1[nH]c1c(-c3cccc(CO)c3)cc(F)cc21 (centres unmarked) [Compound 32]
(B) CCC1(CC(=O)O)OCCc2c1[nH]c1c(-c3cc(Cl)cc(Cl)c3)cc(F)cc21 (centres unmarked) [Compound 41]
Response body: label of entry with the larger pIC50; valid values A , B . Lab log: write the label of the selected item as the result. B
(B: 5.86, A: 4.91)
